# Tested on: Human papillomavirus type 1a E7 protein (residues 1-88)
# assay.details: HPV1a E7 small-molecule binders, primary screen, biochemical, small-molecule microarray, residues 1-88, 635 nm (AID 1129)
# condition.description: small-molecule microarray binding, fluorescence 635 nm; higher = more signal
measured.property: composite z-score
// no unit, no text: just the number

query: Quick one: composite z-score of `CON=C[C@@H](NS(=O)(=O)c1ccc(C)cc1)[C@H](C)C=CCC(=O)OC` ?
result: -1.15

query: Quick one: composite z-score of `CC(=O)OC[C@H]1O[C@H](CCON=C2[C@H]3CCn4c(=O)n(-c5ccccc5)c(=O)n4[C@H]3[C@H](O)[C@@H]3O[C@H]23)C=C[C@@H]1OC(C)=O` ?
result: -0.169

query: Quick one: composite z-score of `C[C@@H](ON=C1[C@H]2CCn3c(=O)n(-c4ccccc4)c(=O)n3[C@H]2[C@H](O)[C@@H]2O[C@H]12)c1cn([C@@H]2COC[C@H]2O)nn1` ?
result: 0.619

query: Quick one: composite z-score of CCOC(=O)[C@H](CC(C)C)NC(=O)CCC1CC(OC(=O)NCc2ccc3c(c2)OCO3)CC2(CCCC(COC(=O)NCC3CCCCC3)O2)O1 (stereo not given in full) ?
result: 0.939

query: Quick one: composite z-score of `CCCNC(=O)OC[C@H]1O[C@H](CCON=C(C)C)C=C[C@@H]1Oc1ccc(OC)cc1` ?
result: -0.124

query: Quick one: composite z-score of `COc1cccc([C@H]2Oc3ccc(OC)cc3C(=NOC[C@@H](O)[C@H]3O[C@@H]4OC(C)(C)O[C@@H]4[C@H]3O)[C@@H]2O)c1` ?
result: 0.372

query: Quick one: composite z-score of `CCCNC(=O)OC[C@H]1O[C@H](CCON=Cc2ccc(C(=O)N3[C@H](c4ccc(C)cc4)[C@@H](C)CC[C@H]3C(=O)OC)cc2)C=C[C@@H]1Oc1ccc(OC)cc1` ?
result: 0.838

query: Quick one: composite z-score of `C[C@@H]1C=CCC(=O)OC[C@H]2O[C@@H](C=C[C@@H]2O)[C@H](C)C=CCC(=O)OC1` ?
result: -0.813

query: Quick one: composite z-score of `COc1ccc(O[C@H]2C=C[C@@H](c3ccccc3)O[C@@H]2CON=C(C)CCN2CCc3nc(-c4ccccc4)c(-c4ccccc4)cc3C2)cc1` ?
result: -0.536

query: Quick one: composite z-score of C[C@H]1CC[C@H]2C(=O)OC(CO)CN2[C@@H]1c1ccc(Br)cc1 (stereo not given in full) ?
result: -0.805

query: Quick one: composite z-score of `COC(=O)CC=C[C@@H](C)[C@@H](C=NO[C@@H]1O[C@H](COC(C)=O)[C@@H](OC(C)=O)[C@H](OC(C)=O)[C@H]1OC(C)=O)NS(=O)(=O)c1ccc(C)cc1` ?
result: -0.231

query: Quick one: composite z-score of `C[n+]1ccc(-c2ccc(CO)cc2)cc1` ?
result: -0.676

query: Quick one: composite z-score of O=C1OCCC=C1C(O)CCc1ccccc1 (stereo not given) ?
result: 0.638

query: Quick one: composite z-score of `O=C1[C@H]2[C@H]3[C@H](O)[C@H](O)CC(=NOC[C@@H](O)COCc4ccco4)[C@@H]3CC[C@H]2C(=O)N1C[C@@H]1CCCO1` ?
result: -0.12

query: Quick one: composite z-score of `COC(=O)NCC=Cc1nc(CCCO)co1` ?
result: 0.804

query: Quick one: composite z-score of `CCCCC#C[C@@H]1C=C[C@H](Oc2ccc(C(=O)OC)cc2)[C@@H](COC(=O)OCC)O1` ?
result: 0.459

query: Quick one: composite z-score of CCOC(=O)[C@H](CC(C)C)NC(=O)CCC1CC(OC(=O)NCCc2ccc(F)cc2)CC2(CCCC(COC(=O)NCCC(C)C)O2)O1 (stereo not given in full) ?
result: 0.0471

query: Quick one: composite z-score of `C[C@@H](c1ccccc1)N1C(=O)[C@H]2[C@H]3[C@H](O)[C@H](O)CC(=NO[C@@H]4O[C@H](CO)[C@@H](O)[C@H](O)[C@H]4O)[C@@H]3CC[C@H]2C1=O` ?
result: 0.585

query: Quick one: composite z-score of `COc1ccc(O[C@H]2C=C[C@@H](c3ccccc3)O[C@@H]2CON=C2[C@H]3CCn4c(=O)n(-c5ccccc5)c(=O)n4[C@H]3[C@H](O)[C@@H]3O[C@H]23)cc1` ?
result: 1.05

query: Quick one: composite z-score of CCOC(=O)[C@H](Cc1ccccc1)NC(=O)OC1CC(CCC2CC(CC)=NO2)OC2(CCCC(COC(=O)NCCC(C)C)O2)C1 (stereo not given in full) ?
result: 0.55

query: Quick one: composite z-score of `CO[C@H]1COC(=O)CC=C[C@H](C)[C@@H](OC)COC(=O)[C@H](C)COC(=O)CC=C[C@@H]1C` ?
result: -0.759

query: Quick one: composite z-score of `C#CCCCON=C1[C@H]2CCn3c(=O)n(-c4ccccc4)c(=O)n3[C@H]2[C@H](O)[C@@H]2O[C@H]12` ?
result: 0.875

query: Quick one: composite z-score of `CCC(=O)[C@@]1(O)C(=O)N2C(=C3C(=O)OCC[C@@H]31)N(Cc1ccccc1)C(C)=C(C(=O)OC)[C@H]2c1ccccc1` ?
result: 0.405

query: Quick one: composite z-score of CCOC(=O)[C@H](Cc1ccccc1)NC(=O)CCC1CC(OC(=O)NCCc2ccc(F)cc2)CC2(CCCC(COC(=O)NCCc3ccccc3OC)O2)O1 (stereo not given in full) ?
result: 1.15

query: Quick one: composite z-score of `COC(=O)CC=C[C@@H](C)[C@@H](C=NOC[C@H]1O[C@H](c2ccccc2)C=C[C@@H]1Oc1ccc(OC)cc1)OC` ?
result: -0.499

query: Quick one: composite z-score of `O=C1C[C@@H](O)[C@@H](O)[C@@H]2[C@@H]3C(=O)N(C[C@@H]4CCCO4)C(=O)[C@@H]3CC[C@H]12` ?
result: 0.569

query: Quick one: composite z-score of `CON=CC[C@@H]1C=C[C@H](OC(C)=O)[C@@H](COC(C)=O)O1` ?
result: -0.534

query: Quick one: composite z-score of COC(=O)[C@H](C)NC(=O)CCC1CC(OC(=O)NCCc2ccc(F)cc2)CC2(CCCC(COC(=O)NCCC(C)C)O2)O1 (stereo not given in full) ?
result: 0.168

query: Quick one: composite z-score of `CO[C@H]1COC(=O)CCC[C@@H](C)[C@H](OC)COC(=O)[C@@H](C)NC(=O)CC=C[C@@H]1C` ?
result: -1.12

query: Quick one: composite z-score of `O=C(NN=C1C[C@@H](O)[C@@H](O)[C@@H]2[C@@H]3C(=O)N(C4CCCCC4)C(=O)[C@@H]3CC[C@@H]12)OCc1ccccc1` ?
result: 0.139
